Each recorded value in this set is attributed to ChEMBL document CHEMBL3885861.

Organism: Rattus norvegicus
Assay: Open TG-GATES - Regimen: Single
Assay type: toxicity, organism-based, Sprague-Dawley
Design: regimen Single, gender Male, age 6 weeks
Settings: in vivo, po, 100 mg/kg, 24 h, tissue Kidney, route gavage, dose level High
Measured KIDNEY_TOTAL, listed per entry.
Give a bare numeral; the unit g is implied.

Some entries whose results are on file:
Structure Smiles String	KIDNEY_TOTAL [g]
CN(C)CCN(Cc1cccs1)c1ccccn1	1.7
CC1=C(/C=C/C(C)=C/C=C/C(C)=C/CO)C(C)(C)CCC1	1.8
CN(C)CCCN1c2ccccc2CCc2ccc(Cl)cc21	2

Task item: // lookup KIDNEY_TOTAL for `CN(C)CCCN1c2ccccc2CCc2ccccc21`
Reply: 1.8
